Source listed as patent US6951871B2.

# assay.system: H3 receptors (Cavia porcellus)
# Construct: The source of the H3 receptors in this experiment was guinea pig brain; from tissue; host or cells: guinea pig brain membranes
# Sequence (Q9JI35 whole entry): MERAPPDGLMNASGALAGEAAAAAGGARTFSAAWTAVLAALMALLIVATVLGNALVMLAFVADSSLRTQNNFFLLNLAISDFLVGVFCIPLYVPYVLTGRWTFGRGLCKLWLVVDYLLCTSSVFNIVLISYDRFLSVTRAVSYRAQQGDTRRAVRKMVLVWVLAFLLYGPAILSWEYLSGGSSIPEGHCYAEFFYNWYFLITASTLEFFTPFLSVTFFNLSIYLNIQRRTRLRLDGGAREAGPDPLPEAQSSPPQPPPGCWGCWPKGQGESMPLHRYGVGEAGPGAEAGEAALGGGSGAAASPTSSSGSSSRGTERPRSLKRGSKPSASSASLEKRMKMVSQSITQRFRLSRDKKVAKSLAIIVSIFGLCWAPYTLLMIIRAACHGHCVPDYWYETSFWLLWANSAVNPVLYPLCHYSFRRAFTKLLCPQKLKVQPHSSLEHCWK
# assay.details: H3-Receptor Binding Assay
# recorded.conditions: guinea pig brain membranes; 3 nM [3H]R-α-methyl histamine or 3 nM [3H]Nα-methyl histamine; 30° C., 30 min
measure: Ki
Form entry: enter the amount, then its unit.

Give the value of Ki reported for the following: Nc1cc(CN2CCC(C(=O)N3CCC(c4c(-c5ccccn5)n(Cc5ccccn5)c5ccccc45)CC3)CC2)ccn1 [Example 5]
1.5 nM
